Data origin: patent US20230116972A1

targetOfAssay: human CD38 (Homo sapiens, UniProt P28907)
Sequence (P28907 whole entry): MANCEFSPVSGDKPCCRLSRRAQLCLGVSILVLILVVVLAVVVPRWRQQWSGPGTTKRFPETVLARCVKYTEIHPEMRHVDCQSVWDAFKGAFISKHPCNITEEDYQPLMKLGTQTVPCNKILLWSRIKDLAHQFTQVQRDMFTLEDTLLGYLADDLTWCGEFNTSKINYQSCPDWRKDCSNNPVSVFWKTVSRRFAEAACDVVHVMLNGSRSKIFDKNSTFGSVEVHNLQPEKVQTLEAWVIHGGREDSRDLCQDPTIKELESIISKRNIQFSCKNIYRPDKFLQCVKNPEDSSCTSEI
experimentalProtocol: human recombinant CD38 enzyme assay (hydrolysis of NAD+)
conditionSummary: human recombinant CD38, 0.4 nM enzyme, 62.5 μM NAD+; read-out: hCD38 BioChem IC50
readoutLabel: IC50 (nM)
// note: answer is a bare numeric in nM

Asked: Give its IC50 value. Item: COCCO[C@H]1CC[C@H](NC(=O)c2cc(C)nc(-n3ccnc3)n2)CC1 [Compound 156]
Given back: 30

Asked: Give its IC50 value. Item: CC(C)c1cc(C(=O)Nc2ccc(C(F)(F)F)nc2)nc(-c2cncn2C)n1 [Compound 174]
Given back: 8

Asked: Give its IC50 value. Item: Cn1cncc1-c1nc(C(=O)N[C@H]2C[C@](O)(c3ccccc3)C2)cc(C2CCOCC2)n1 [Compound 277]
Given back: 7.9

* * *

What pIC50 was measured for each of the following?
targetOfAssay: human CD38 (Homo sapiens, UniProt P28907)
experimentalProtocol: human recombinant CD38 enzyme assay (hydrolysis of NAD+)
conditionSummary: human recombinant CD38, 0.4 nM enzyme, 62.5 μM NAD+; read-out: hCD38 BioChem IC50
pIC50 is a log-scale quantity: -log10 of the concentration expressed in molar.

Asked: Give its pIC50 value. Item: COc1ncc(-c2cncn2C)nc1C(=O)N[C@H]1CC[C@H](OC)CC1 [Compound 303]
Given back: 6.53

Asked: Give its pIC50 value. Item: Cc1cc(C(F)(F)F)ncc1NC(=O)c1cccc(-n2ccnc2)n1 [Compound 29]
Given back: 6.41

Asked: Give its pIC50 value. Item: Cn1cncc1-c1ccnc(C(=O)Nc2ccc(C(F)F)nc2)n1 [Compound 147]
Given back: 8.70

Asked: Give its pIC50 value. Item: C[C@H]1CC[C@H](NC(=O)c2ccnc(-c3cncs3)n2)CC1 [Compound 112]
Given back: 6.19

Asked: Give its pIC50 value. Item: Cc1cc(C(=O)Nc2ccc(C(F)F)nc2)nc(-c2cncs2)c1 [Compound 132]
Given back: 6.94

Asked: Give its pIC50 value. Item: COc1ccc([C@H]2C[C@H](NC(=O)c3nccc(-c4cncn4C)n3)C2)cc1 [Compound 218]
Given back: 7.60

Asked: Give its pIC50 value. Item: Cn1cncc1-c1nccc(C(=O)NC2CC3(C2)CC(F)(F)C3)n1 [Compound 82]
Given back: 8.00

Asked: Give its pIC50 value. Item: Cn1cncc1-c1ccnc(C(=O)N[C@@H]2CC[C@@H](O)C2)n1 [Compound 302]
Given back: 6.43

Asked: Give its pIC50 value. Item: O=C(Nc1ccccc1F)c1cccc(-n2ccnc2)n1 [Compound 17]
Given back: 7.17

Asked: Give its pIC50 value. Item: Cn1cncc1-c1ccnc(C(=O)N[C@H]2C[C@@H](c3ccccc3)C2)n1 [Compound 214]
Given back: 6.49
